Below: a set of entries, each annotated with reported MIC.
Tested on: Candida albicans
Experiment: Antifungal activity against azole-resistant Candida albicans CN1A after 48 hrs by NCCLS M27A method
Format: functional
Express it in µg/mL; write the number only.

Before answering, review these 3 worked examples.
| compound | result |
| --- | --- |
| CC(=O)O[C@@H]1C=C(C=O)[C@](O)(C=O)[C@@]2(C)CCCC(C)(C)[C@H]12 | 62.5 |
| COc1ccc2cc3[n+](cc2c1OC)CCc1cc2c(cc1-3)OCO2.[Cl-] [BERBERINE CHLORIDE] | 15.6 |
| CC(=O)N1CCN(c2ccc(OCC3COC(Cn4ccnc4)(c4ccc(Cl)cc4Cl)O3)cc2)CC1 (centres undefined) | 93.8 |

Alright, here's another compound for you.
The compound listed as CC(=O)O[C@@H]1C=C2C(=O)OC[C@]2(O)[C@@]2(C)CCCC(C)(C)[C@H]12 [CINNAMOSMOLIDE] shows MIC equal to 23.4
